Test system: 926638-142-R-J1-PDC complex spheroid viability;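 note: spheroids exposed to drugs for one week before readout; percent viability relative to DMSO vehicle control wells set as 100%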
Test Description: Anticancer human tumor 926638-142-R-J1-PDC patient-derived endometrial carcinoma cell line growth inhibition [POLQ]
Assay Context: second compound 0.1 µM; first compound 3.16 µM; stronger effect = lower value
Endpoint: viability, T/C (%)

compound="CC(C)n1c(=O)n(C)c2cnc3cc(F)c(-c4ccc(OCCCN5CCCCC5)nc4)cc3c21 + COC1C(OC(N)=O)C(O)C(Oc2ccc3c(O)c(NC(=O)c4ccc(O)c(CC=C(C)C)c4)c(=O)oc3c2C)OC1(C)C" endpoint="viability, T/C" reported=90.3
compound="CCCS(=O)(=O)Nc1ccc(F)c(C(=O)c2c[nH]c3ncc(-c4ccc(Cl)cc4)cc23)c1F + Cc1cccc(N(C)C(=O)C2C(O)CCN2c2nc(C)cc(C(F)(F)F)c2C#N)c1" endpoint="viability, T/C" reported=86.4
compound="C#Cc1c(F)ccc2cc(O)cc(-c3ncc4c(N5CC6CCC(C5)N6)nc(OCC56CCCN5CC(F)C6)nc4c3F)c12 (stereo not given) + COC1C(OC(N)=O)C(O)C(Oc2ccc3c(O)c(NC(=O)c4ccc(O)c(CC=C(C)C)c4)c(=O)oc3c2C)OC1(C)C" endpoint="viability, T/C" reported=66.4
compound="O=c1[nH]cc(F)c(=O)[nH]1 + Cc1cccc(N(C)C(=O)C2C(O)CCN2c2nc(C)cc(C(F)(F)F)c2C#N)c1" endpoint="viability, T/C" reported=106
compound="COc1cc2cc(C(=O)CCC(=O)O)sc2cc1OC + Nc1ccc(C#CCN(C(=O)Cc2ncc(C(F)(F)F)cc2C(F)(F)F)c2ccc(F)cc2)nn1" endpoint="viability, T/C" reported=104
